test system: AGS (Homo sapiens); assay: Cytotoxicity against human AGS cells assessed as cell survival at 50 ug/mL after 24 hrs by MTT assay
measurementName: viability at 24 h, 50 ug/mL (%)

{"structureString": "O=C(O)c1ccc(NC(=O)c2cc3ccc(O)cc3oc2=O)cc1", "assayTarget": "AGS (Homo sapiens)", "measurementUnit": "%", "reportedMeasurement": 77}
{"structureString": "CCOC(=O)c1ccc(NC(=O)c2cc3cc(Br)cc(Cl)c3oc2=O)cc1", "assayTarget": "AGS (Homo sapiens)", "measurementUnit": "%", "reportedMeasurement": 64}
{"structureString": "CCOC(=O)c1ccc(NC(=O)c2cc3cc(C)ccc3oc2=O)cc1", "assayTarget": "AGS (Homo sapiens)", "measurementUnit": "%", "reportedMeasurement": 63}
{"structureString": "CCOC(=O)c1ccc(NC(=O)c2cc3cc(OC)ccc3oc2=O)cc1", "assayTarget": "AGS (Homo sapiens)", "measurementUnit": "%", "reportedMeasurement": 41}
{"structureString": "CCOC(=O)c1ccc(NC(=O)c2cc3ccc(O)cc3oc2=O)cc1", "assayTarget": "AGS (Homo sapiens)", "measurementUnit": "%", "reportedMeasurement": 78}
{"structureString": "CCOC(=O)c1ccc(NC(=O)c2cc3cc(O)ccc3oc2=O)cc1", "assayTarget": "AGS (Homo sapiens)", "measurementUnit": "%", "reportedMeasurement": 82}

###

test: Cytotoxicity against human EAhy926 cells assessed as cell survival at 5 ug/mL after 24 hrs by MTT assay; type: cell-based, EA.hy 926; conditions: read-out: Survival
measurementName: viability at 24 h, 5 ug/mL (%)

{"structureString": "CCOC(=O)c1ccc(NC(=O)c2cc3cc(Br)cc(Cl)c3oc2=O)cc1", "measurementName": "viability at 24 h, 5 ug/mL", "measurementUnit": "%", "reportedMeasurement": 75}
{"structureString": "CCOC(=O)c1ccc(NC(=O)c2cc3cc(OC)ccc3oc2=O)cc1", "measurementName": "viability at 24 h, 5 ug/mL", "measurementUnit": "%", "reportedMeasurement": 58}
{"structureString": "COc1ccc2oc(=O)c(C(=O)Nc3ccc(C(=O)O)cc3)cc2c1", "measurementName": "viability at 24 h, 5 ug/mL", "measurementUnit": "%", "reportedMeasurement": 99}
{"structureString": "CCOC(=O)c1ccc(NC(=O)c2cc3ccc(O)cc3oc2=O)cc1", "measurementName": "viability at 24 h, 5 ug/mL", "measurementUnit": "%", "reportedMeasurement": 82}
{"structureString": "O=C(O)c1ccc(NC(=O)c2cc3ccc(O)cc3oc2=O)cc1", "measurementName": "viability at 24 h, 5 ug/mL", "measurementUnit": "%", "reportedMeasurement": 99}
{"structureString": "CCOC(=O)c1ccc(NC(=O)c2cc3cc(O)ccc3oc2=O)cc1", "measurementName": "viability at 24 h, 5 ug/mL", "measurementUnit": "%", "reportedMeasurement": 99}
{"structureString": "CCOC(=O)c1ccc(NC(=O)c2cc3cc(C)ccc3oc2=O)cc1", "measurementName": "viability at 24 h, 5 ug/mL", "measurementUnit": "%", "reportedMeasurement": 81}

###

tested on: Helicobacter pylori; experiment: Antibacterial activity against metronidazole-resistant Helicobacter pylori isolate 1 after 72 hrs by agar dilution method; assay type: functional; settings: isolate 1, 72 h
measurementName: log10(MIC) (log10 of the value in µg/mL)

{"structureString": "CCOC(=O)c1ccc(NC(=O)c2cc3cc(Br)cc(Cl)c3oc2=O)cc1", "measurementName": "log10(MIC)", "reportedMeasurement": 0.90}
{"structureString": "CCOC(=O)c1ccc(NC(=O)c2cc3cc(C)ccc3oc2=O)cc1", "measurementName": "log10(MIC)", "reportedMeasurement": 0.90}
{"structureString": "Cc1ncc([N+](=O)[O-])n1CCO", "measurementName": "log10(MIC)", "reportedMeasurement": 1.81}
{"structureString": "O=C(O)c1ccc(NC(=O)c2cc3cc(Br)cc(Br)c3oc2=O)cc1", "measurementName": "log10(MIC)", "reportedMeasurement": 1.20}
{"structureString": "O=C(O)c1ccc(NC(=O)c2cc3cc(Br)cc(Cl)c3oc2=O)cc1", "measurementName": "log10(MIC)", "reportedMeasurement": 1.20}
{"structureString": "CCOC(=O)c1ccc(NC(=O)c2cc3cc(Br)cc(Br)c3oc2=O)cc1", "measurementName": "log10(MIC)", "reportedMeasurement": 1.81}
{"structureString": "O=C(O)c1ccc(NC(=O)c2cc3cc(O)ccc3oc2=O)cc1", "measurementName": "log10(MIC)", "reportedMeasurement": 0.60}
{"structureString": "CCOC(=O)N1CCC(NC(=O)c2cc3ccccc3oc2=O)CC1", "measurementName": "log10(MIC)", "reportedMeasurement": 2.11}
{"structureString": "CCOC(=O)c1ccc(NC(=O)c2cc3cc(OC)ccc3oc2=O)cc1", "measurementName": "log10(MIC)", "reportedMeasurement": 0.90}
{"structureString": "O=C(O)c1ccc(NC(=O)c2cc3cc([N+](=O)[O-])ccc3oc2=O)cc1", "measurementName": "log10(MIC)", "reportedMeasurement": 2.11}
{"structureString": "COc1ccc2oc(=O)c(C(=O)Nc3ccc(C(=O)O)cc3)cc2c1", "measurementName": "log10(MIC)", "reportedMeasurement": 0.90}
{"structureString": "CCOC(=O)c1ccc(NC(=O)c2cc3cc(O)ccc3oc2=O)cc1", "measurementName": "log10(MIC)", "reportedMeasurement": 0.60}
{"structureString": "O=C(O)c1ccc(NC(=O)c2cc3ccc(O)cc3oc2=O)cc1", "measurementName": "log10(MIC)", "reportedMeasurement": 0.90}
{"structureString": "CCOC(=O)N1CCC(NC(=O)c2cc3cc(Br)ccc3oc2=O)CC1", "measurementName": "log10(MIC)", "reportedMeasurement": 1.51}
{"structureString": "CCOC(=O)c1ccc(NC(=O)c2cc3ccc(O)cc3oc2=O)cc1", "measurementName": "log10(MIC)", "reportedMeasurement": 0.90}

###

assay: Cytotoxicity against human EAhy926 cells assessed as cell survival at 5 ug/mL after 24 hrs by trypan blue exclusion assay; type: cell-based, EA.hy 926; settings: read-out: Survival

{"structureString": "COc1ccc2oc(=O)c(C(=O)Nc3ccc(C(=O)O)cc3)cc2c1", "viability at 24 h, 5 ug/mL (%)": 69}
{"structureString": "CCOC(=O)c1ccc(NC(=O)c2cc3cc(O)ccc3oc2=O)cc1", "viability at 24 h, 5 ug/mL (%)": 80}
{"structureString": "O=C(O)c1ccc(NC(=O)c2cc3ccc(O)cc3oc2=O)cc1", "viability at 24 h, 5 ug/mL (%)": 92}
{"structureString": "CCOC(=O)c1ccc(NC(=O)c2cc3cc(C)ccc3oc2=O)cc1", "viability at 24 h, 5 ug/mL (%)": 59}
{"structureString": "CCOC(=O)c1ccc(NC(=O)c2cc3cc(Br)cc(Cl)c3oc2=O)cc1", "viability at 24 h, 5 ug/mL (%)": 71}
{"structureString": "CCOC(=O)c1ccc(NC(=O)c2cc3ccc(O)cc3oc2=O)cc1", "viability at 24 h, 5 ug/mL (%)": 92}
{"structureString": "CCOC(=O)c1ccc(NC(=O)c2cc3cc(OC)ccc3oc2=O)cc1", "viability at 24 h, 5 ug/mL (%)": 42}

###

tested on: Helicobacter pylori; assay: Antibacterial activity against metronidazole-resistant Helicobacter pylori isolate 20 after 72 hrs by agar dilution method; assay type: functional; conditions: isolate 20, 72 h

{"molecule": "O=C(O)c1ccc(NC(=O)c2cc3cc([N+](=O)[O-])ccc3oc2=O)cc1", "MIC": "64 µg/mL"}
{"molecule": "CCOC(=O)c1ccc(NC(=O)c2cc3cccc(O)c3oc2=O)cc1", "MIC": "> 128 µg/mL"}
{"molecule": "COc1ccc2cc(C(=O)Nc3ccc(C(=O)O)cc3)c(=O)oc2c1", "MIC": "> 128 µg/mL"}
{"molecule": "Cc1ncc([N+](=O)[O-])n1CCO [METRONIDAZOLE]", "MIC": "128 µg/mL"}
{"molecule": "CCOC(=O)N1CCC(NC(=O)c2cc3ccccc3oc2=O)CC1", "MIC": "> 128 µg/mL"}
{"molecule": "CCOC(=O)c1ccc(NC(=O)c2cc3cc(O)ccc3oc2=O)cc1", "MIC": "2 µg/mL"}
{"molecule": "CCOC(=O)c1ccc(NC(=O)c2cc3cc(C)ccc3oc2=O)cc1", "MIC": "2 µg/mL"}

###

experiment: Cytotoxicity against human EAhy926 cells assessed as cell survival at 0.05 ug/mL after 24 hrs by trypan blue exclusion assay; assay type: cell-based, EA.hy 926; details: read-out: Survival
molecules and their reported viability at 24 h, 0.05 ug/mL
measurementName: viability at 24 h, 0.05 ug/mL (%)

{"structureString": "CCOC(=O)c1ccc(NC(=O)c2cc3cc(OC)ccc3oc2=O)cc1", "reportedMeasurement": 72}
{"structureString": "CCOC(=O)c1ccc(NC(=O)c2cc3cc(C)ccc3oc2=O)cc1", "reportedMeasurement": 80}
{"structureString": "COc1ccc2oc(=O)c(C(=O)Nc3ccc(C(=O)O)cc3)cc2c1", "reportedMeasurement": 85}
{"structureString": "CCOC(=O)c1ccc(NC(=O)c2cc3cc(O)ccc3oc2=O)cc1", "reportedMeasurement": 93}
{"structureString": "CCOC(=O)c1ccc(NC(=O)c2cc3ccc(O)cc3oc2=O)cc1", "reportedMeasurement": 96}
{"structureString": "O=C(O)c1ccc(NC(=O)c2cc3ccc(O)cc3oc2=O)cc1", "reportedMeasurement": 98}
{"structureString": "CCOC(=O)c1ccc(NC(=O)c2cc3cc(Br)cc(Cl)c3oc2=O)cc1", "reportedMeasurement": 94}
